Reported Ki values for the following compounds.
# SYSTEM TESTED: UniProt P04150
# Sequence (P04150 whole entry): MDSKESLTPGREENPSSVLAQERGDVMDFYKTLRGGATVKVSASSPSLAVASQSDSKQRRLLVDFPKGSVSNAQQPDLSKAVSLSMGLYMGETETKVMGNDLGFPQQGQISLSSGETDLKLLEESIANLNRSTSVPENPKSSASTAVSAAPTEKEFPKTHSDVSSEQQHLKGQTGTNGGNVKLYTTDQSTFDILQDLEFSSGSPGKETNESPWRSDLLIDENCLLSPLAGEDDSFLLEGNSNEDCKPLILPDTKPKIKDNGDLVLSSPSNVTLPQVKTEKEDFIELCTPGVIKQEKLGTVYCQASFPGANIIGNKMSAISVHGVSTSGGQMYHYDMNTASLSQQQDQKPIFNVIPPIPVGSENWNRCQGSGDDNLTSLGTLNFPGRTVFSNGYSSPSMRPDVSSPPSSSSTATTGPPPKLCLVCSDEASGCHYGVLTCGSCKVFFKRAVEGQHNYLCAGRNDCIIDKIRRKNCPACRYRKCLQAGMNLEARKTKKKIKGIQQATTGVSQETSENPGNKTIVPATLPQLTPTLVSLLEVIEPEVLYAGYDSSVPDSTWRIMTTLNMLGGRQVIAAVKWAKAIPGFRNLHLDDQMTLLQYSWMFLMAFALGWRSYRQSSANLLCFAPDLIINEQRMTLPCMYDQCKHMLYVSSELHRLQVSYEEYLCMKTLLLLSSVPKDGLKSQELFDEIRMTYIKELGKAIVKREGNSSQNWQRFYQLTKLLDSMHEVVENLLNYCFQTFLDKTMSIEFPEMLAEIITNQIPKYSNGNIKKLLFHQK
# PROTOCOL TEXT: Alternative Binding Assay Protocol (Method 2), GR
# CONDITION DESCRIPTION: 293-GR lysate, 3H-dexamethasone
MEASURED ATTRIBUTE: Ki

- O=c1[nH]c2cc(/C=C3\c4ccc(F)cc4COc4cc(F)ccc43)ccc2n1C1CCNCC1: < 0.5 µM
- O=c1[nH]c2cc(/C=C3/c4ccc(F)cc4OCc4c(F)cccc43)ccc2n1CCN1CCNCC1: < 0.5 µM
- O=c1[nH]c2cc(/C=C3/c4ccc(F)cc4OCc4c(F)cccc43)ccc2n1[C@H]1CCNC1: < 0.5 µM
- O=c1[nH]c2cc(/C=C3\c4ccccc4COc4cc(F)ccc43)ccc2n1C[C@H]1CCCN1: < 1 µM
- O=c1[nH]c2cc(/C=C3\c4ccc(F)cc4COc4cc(F)ccc43)ccc2n1CCCN1CCOCC1: < 0.5 µM
- O=c1[nH]c2cc(/C=C3/c4ccc(F)cc4OCc4c(F)cccc43)ccc2n1CCCN1CCOCC1: < 0.5 µM
- CC(C)(CN1CCOCC1)n1c(=O)[nH]c2cc(/C=C3\c4ccc(F)cc4COc4cc(F)ccc43)ccc21: < 1 µM
- O=c1[nH]c2cc(/C=C3\c4ccc(F)cc4COc4cc(F)ccc43)ccc2n1CCN1CCCC1: < 0.5 µM
